Value source: patent US20150105252A1

test system: barley, winter; assay: Test D preemergence; type: in vivo, Hordeum vulgare; conditions: 250 g ai/ha, scale 0 to 100
Consider the following molecules; for each one, report its Plant response rating, Barley, Winter.
Numbers only.

These recorded examples may help you get a feel for the data.
CCCc1cc(C(=O)NCC(F)(F)F)nn1Cc1cc(C(F)(F)F)nn1C [Compound 138] :: 70
CCCc1cc(C(=O)NCC(F)(F)F)nn1Cc1ccnc(C(F)(F)F)c1 [Compound 105] :: 95
CCOc1cc(C(=O)NC(C)C)nn1Cc1ccnc(C(F)(F)F)c1 [Compound 188] :: 100

From here, focus on the item given below.
Query: Which measured Plant response rating, Barley, Winter value corresponds to CCc1cc(C(=O)NCC(F)(F)F)nn1Cc1ccnc(C(F)(F)F)c1 [Compound 78] ?
Reply: 95

* * *

system: barnyardgrass; experiment: Test C preemergence; type: in vivo, Echinochloa crus-galli; settings: preemergence, 31 g ai/ha; scale 0 to 100 (0 no effect, 100 complete control), 13 to 15 days
So I've got a bunch of molecules here, and I need their Barnyardgrass plant response rating values.

Below: 3 molecules and their reported Barnyardgrass plant response rating.
CCc1cc(C(=O)NCC(F)(F)F)nn1Cc1ccnc(C(F)(F)F)c1 :: 100
CCONC(=O)c1cc(CC)n(Cc2cc(C(F)(F)F)no2)n1 :: 5
CCCc1cc(C(=O)NCC)nn1Cc1cc(C(F)(F)F)nn1C :: 95

// for each molecule in input: emit Barnyardgrass plant response rating
1. CCOc1cc(C(=O)NC2CC2)nn1Cc1ccnc(OC(F)F)c1
2. CCCNC(=O)c1cc(CC)n(Cc2ccnc(OC(F)F)c2)n1

Reply:
[65, 95]

* * *

test system: galium; experiment: Test C preemergence; type: in vivo, Galium aparine; conditions: preemergence, 125 g ai/ha; 13 to 15 days; scale 0 to 100, 0 = no effect, 100 = complete control
Exercise: for every item that follows, state its recorded Plant response rating, Galium.
Give bare numbers.

Solved cases below.
CCc1cc(C(=O)NC(C)C)nn1Cc1ccnc(C(F)(F)F)c1 :: 100
CCNC(=O)c1cc(CC)n(Cc2ccnc(C(F)(F)F)c2)n1 :: 100
CCCc1cc(C(=O)NOCC)nn1Cc1ccnc(C(F)(F)F)c1 :: 95
CCONC(=O)c1cc(OCC)n(Cc2ccnc(C(F)(F)F)c2)n1 :: 95
CCc1cc(C(=O)NC2CC2)nn1Cc1cc(C(F)(F)C(F)(F)F)nn1C :: 80
CCOc1cc(C(=O)NC2CC2)nn1Cc1ccnc(OC(F)F)c1 :: 98

Please report Plant response rating, Galium for every entry that follows.
1. CCCNC(=O)c1cc(CC)n(Cc2ccnc(OC(F)F)c2)n1
2. CCCNC(=O)c1cc(CCCl)n(Cc2ccnc(C(F)(F)F)c2)n1

Reply:
1: 100; 2: 95

* * *

tested on: nutsedge, yellow; assay: Test C preemergence; type: in vivo, Cyperus esculentus; conditions: preemergence, 250 g ai/ha; scale 0 to 100, 0 is no effect, 100 is complete control
ATTRIBUTE MEASURED: Nutsedge, Yellow plant response rating
One number for each entry.

CCONC(=O)c1cc(OCC)n(Cc2ccnc(C(F)(F)F)c2)n1 :: 95
CCNC(=O)c1cc(CC)n(Cc2ccnc(C(F)(F)F)c2)n1 :: 90
CCc1cc(C(=O)NCC2CC2)nn1Cc1ccnc(C(F)(F)F)c1 :: 85

Query: Fill in the blank: the reported Nutsedge, Yellow plant response rating of CCc1cc(C(=O)NC2CC2)nn1Cc1ccnc(OCC(F)(F)F)c1 is ____.
Reply: 60
